Cited source: paper PMC9433906

test system: RAW 264.7 cells; assay: MTT cytotoxicity test against RAW 264.7; format: cell-based, mice; conditions: tested concentrations of Table 1 (128–16 μg.ml^−1), 24 h
Where a SMILES comes first, the peptide text is derived from it.
endpoint_name: toxicity against RAW264.7 cells (in words)

molecule: CC(C)C[C@H](NC(=O)[C@H](C)NC(=O)CNC(=O)[C@H](Cc1ccccc1)NC(=O)CN)C(=O)N[C@@H](Cc1ccccc1)C(=O)N[C@@H](CCCCN)C(=O)N[C@@H](CCCNC(=N)N)C(=O)N[C@@H](CC(C)C)C(=O)N[C@@H](C)C(=O)N[C@@H](CCCCN)C(=O)N[C@@H](CCCCN)C(=O)N[C@H](C(=O)N[C@@H](C)C(=O)N[C@@H](CCCCN)C(=O)N[C@H](C(=O)N[C@H](C(=O)N[C@@H](C)C(N)=O)C(C)C)[C@@H](C)O)C(C)C [Peptide R3b] (H-GFGALFKRLAKKVAKTVA-NH2)
obs_value: high toxicity
--
molecule: CC(C)C[C@H](NC(=O)[C@H](C)NC(=O)CNC(=O)[C@H](Cc1ccccc1)NC(=O)CN)C(=O)N[C@@H](Cc1ccccc1)C(=O)N[C@@H](CCCCN)C(=O)N[C@@H](Cc1ccccc1)C(=O)N[C@@H](CC(C)C)C(=O)N[C@@H](C)C(=O)N[C@@H](CCCCN)C(=O)N[C@@H](C)C(=O)N[C@H](C(=O)N[C@@H](C)C(=O)N[C@@H](CCCCN)C(=O)N[C@@H](C)C(=O)N[C@H](C(=O)N[C@@H](C)C(N)=O)C(C)C)C(C)C [Peptide R6b] (H-GFGALFKFLAKAVAKAVA-NH2)
obs_value: high toxicity
--
molecule: CC(C)C[C@H](NC(=O)[C@H](C)NC(=O)CNC(=O)[C@H](Cc1ccccc1)NC(=O)CN)C(=O)N[C@@H](Cc1ccccc1)C(=O)N[C@@H](CCCCN)C(=O)N[C@@H](Cc1ccccc1)C(=O)N[C@@H](CC(C)C)C(=O)N[C@@H](C)C(=O)N[C@@H](CCCCN)C(=O)N[C@@H](CCCCN)C(=O)N[C@H](C(=O)N[C@@H](C)C(=O)N[C@@H](CCCCN)C(=O)N[C@@H](C)C(=O)N[C@H](C(=O)N[C@@H](C)C(N)=O)C(C)C)C(C)C [Peptide R2b] (H-GFGALFKFLAKKVAKAVA-NH2)
obs_value: high toxicity
